Every entry's value here was drawn from ChEMBL document CHEMBL3137667.

conditions: human

[
  {
    "Compound": "O=C(O)CCCc1ccc(N(CCCl)CCCl)cc1",
    "Hepatotoxicity (choleostasis)": 3
  },
  {
    "Compound": "O=C1CN=C(c2ccccc2)c2c(sc3c2CCCC3)N1",
    "Hepatotoxicity (choleostasis)": 0
  },
  {
    "Compound": "CC=CC1=C(C(=O)O)N2C(=O)[C@@H](NC(=O)[C@H](N)c3ccc(O)cc3)[C@H]2SC1",
    "Hepatotoxicity (choleostasis)": 1
  },
  {
    "Compound": "CN(C)[C@@H]1C(O)=C(C(N)=O)C(=O)[C@@]2(O)C(O)=C3C(=O)c4c(O)ccc(Cl)c4[C@@](C)(O)[C@H]3C[C@@H]12",
    "Hepatotoxicity (choleostasis)": 1
  },
  {
    "Compound": "COCCCOc1ccnc(C[S+]([O-])c2nc3ccccc3[nH]2)c1C (stereo not given)",
    "Hepatotoxicity (choleostasis)": 0
  },
  {
    "Compound": "CN1CCN(C2=Nc3cc(Cl)ccc3Nc3ccccc32)CC1",
    "Hepatotoxicity (choleostasis)": 4
  },
  {
    "Compound": "CN1CCCN(C(c2ccccc2)c2ccc(Cl)cc2)CC1 (stereo not given)",
    "Hepatotoxicity (choleostasis)": 1
  },
  {
    "Compound": "CSc1ccc2c(c1)N(CCC1CCCCN1C)c1ccccc1S2 (stereo not given)",
    "Hepatotoxicity (choleostasis)": 5
  },
  {
    "Compound": "CN1[C@@H]2CC[C@H]1C[C@@H](OC(=O)c1c[nH]c3ccccc13)C2",
    "Hepatotoxicity (choleostasis)": 0
  },
  {
    "Compound": "CC(=O)Nc1ccc(/C=N/NC(N)=S)cc1",
    "Hepatotoxicity (choleostasis)": 2
  },
  {
    "Compound": "Cc1cccc(C)c1NC(=O)C(C)N (stereo not given) [TOCAINIDE]",
    "Hepatotoxicity (choleostasis)": 4
  },
  {
    "Compound": "OC(CCCN1CCCCC1)(c1ccccc1)c1ccccc1",
    "Hepatotoxicity (choleostasis)": 0
  },
  {
    "Compound": "CCCC1O[C@@H]2C[C@H]3[C@@H]4CCC5=CC(=O)C=C[C@]5(C)[C@H]4[C@@H](O)C[C@]3(C)[C@]2(C(=O)CO)O1 (stereo not given in full) [BUDESONIDE]",
    "Hepatotoxicity (choleostasis)": 0
  },
  {
    "Compound": "CCCC[C@@H]1CC(=O)[C@]2(O)O[C@@H]3[C@@H](NC)[C@@H](O)[C@@H](NC)[C@H](O)[C@H]3O[C@@H]2O1",
    "Hepatotoxicity (choleostasis)": 0
  },
  {
    "Compound": "NC(=O)OC[C@@H]1[C@H](NC(=O)/C(=N\\OCC(=O)O)c2csc(N)n2)C(=O)N1S(=O)(=O)O",
    "Hepatotoxicity (choleostasis)": 0
  },
  {
    "Compound": "COc1ccc(OC)c(Cc2cnc3nc(N)nc(N)c3c2C)c1",
    "Hepatotoxicity (choleostasis)": 0
  },
  {
    "Compound": "COc1cc2nc(N(C)CCCNC(=O)C3CCCO3)nc(N)c2cc1OC (stereo not given)",
    "Hepatotoxicity (choleostasis)": 0
  },
  {
    "Compound": "CN1CCN(C2=Nc3cc(F)ccc3Cc3ccccc32)CC1",
    "Hepatotoxicity (choleostasis)": 0
  },
  {
    "Compound": "CCOc1ccc2ccccc2c1C(=O)N[C@@H]1C(=O)N2[C@@H]1SC(C)(C)[C@@H]2C(=O)O",
    "Hepatotoxicity (choleostasis)": 3
  },
  {
    "Compound": "O=C(NO)c1ccc(O)c(O)c1",
    "Hepatotoxicity (choleostasis)": 0
  },
  {
    "Compound": "CCc1ccc(CCOc2ccc(CC3SC(=O)NC3=O)cc2)nc1 (stereo not given)",
    "Hepatotoxicity (choleostasis)": 3
  },
  {
    "Compound": "CCCCCCCCCCC[C@@H](C[C@@H]1OC(=O)[C@H]1CCCCCC)OC(=O)[C@H](CC(C)C)NC=O",
    "Hepatotoxicity (choleostasis)": 1
  },
  {
    "Compound": "N=C(N)c1ccc(/C=C/c2ccc(C(=N)N)cc2)cc1",
    "Hepatotoxicity (choleostasis)": 0
  },
  {
    "Compound": "Cc1cc(C)cc(OCC2CNC(=O)O2)c1 (stereo not given)",
    "Hepatotoxicity (choleostasis)": 0
  },
  {
    "Compound": "CCC(C)n1ncn(-c2ccc(N3CCN(c4ccc(OCC5COC(Cn6cncn6)(c6ccc(Cl)cc6Cl)O5)cc4)CC3)cc2)c1=O (stereo not given)",
    "Hepatotoxicity (choleostasis)": 10
  },
  {
    "Compound": "Clc1cccc(C(c2ccc3[nH]cnc3c2)n2ccnc2)c1 (stereo not given)",
    "Hepatotoxicity (choleostasis)": 0
  },
  {
    "Compound": "O=C(Cn1ccnc1[N+](=O)[O-])NCc1ccccc1",
    "Hepatotoxicity (choleostasis)": 0
  },
  {
    "Compound": "COc1ccnc(C[S+]([O-])c2nc3ccc(OC(F)F)cc3[nH]2)c1OC (stereo not given)",
    "Hepatotoxicity (choleostasis)": 0
  },
  {
    "Compound": "C[C@]12C=CC(=O)C=C1CC[C@@H]1[C@@H]2[C@@H](O)C[C@@]2(C)[C@H]1CC[C@]2(O)C(=O)CO",
    "Hepatotoxicity (choleostasis)": 0
  },
  {
    "Compound": "CC[C@@H](CO)NC(=O)[C@@H]1C=C2c3cccc4[nH]cc(c34)C[C@H]2N(C)C1",
    "Hepatotoxicity (choleostasis)": 0
  },
  {
    "Compound": "CCn1cc(C(=O)O)c(=O)c2cc(F)c(N3CCNCC3)nc21",
    "Hepatotoxicity (choleostasis)": 1
  },
  {
    "Compound": "CC(N)C(=O)OC(C)(C)Cc1ccc(Cl)cc1 (stereo not given) [ALAPROCLATE]",
    "Hepatotoxicity (choleostasis)": 0
  },
  {
    "Compound": "CC1CCc2cc(F)cc3c(=O)c(C(=O)O)cn1c23 (stereo not given)",
    "Hepatotoxicity (choleostasis)": 0
  },
  {
    "Compound": "COc1cccc(C2(O)CCCCC2CN(C)C)c1 (stereo not given)",
    "Hepatotoxicity (choleostasis)": 0
  },
  {
    "Compound": "Cc1cccc(Nc2ccncc2S(=O)(=O)NC(=O)NC(C)C)c1 [TORSEMIDE]",
    "Hepatotoxicity (choleostasis)": 0
  }
]

----------
details: human, Liver

[
  {
    "Molecule": "Cc1c(C)c2c(c(C)c1O)CC[C@@](C)(CCC[C@H](C)CCC[C@H](C)CCCC(C)C)O2",
    "Hepatotoxicity (choleostasis)": 3
  },
  {
    "Molecule": "CCO.CN1CCC[C@H]1c1cccnc1",
    "Hepatotoxicity (choleostasis)": 2
  },
  {
    "Molecule": "COC(=O)[C@H](c1ccccc1Cl)N1CCc2sccc2C1",
    "Hepatotoxicity (choleostasis)": 1
  },
  {
    "Molecule": "COc1cc([C@@H]2c3cc4c(cc3[C@@H](O[C@@H]3O[C@@H]5CO[C@@H](C)O[C@H]5[C@H](O)[C@H]3O)[C@H]3COC(=O)[C@H]23)OCO4)cc(OC)c1O [ETOPOSIDE]",
    "Hepatotoxicity (choleostasis)": 2
  }
]

----------
conditions: human

[
  {
    "Molecule": "CC(C)C[C@H](NC(=O)[C@@H](COC(C)(C)C)NC(=O)[C@H](Cc1ccc(O)cc1)NC(=O)[C@H](CO)NC(=O)[C@H](Cc1c[nH]c2ccccc12)NC(=O)[C@H](Cc1cnc[nH]1)NC(=O)[C@@H]1CCC(=O)N1)C(=O)N[C@@H](CCCNC(=N)N)C(=O)N1CCC[C@H]1C(=O)NNC(N)=O",
    "Hepatotoxicity (severe hepatitis)": 1
  },
  {
    "Molecule": "CCc1nc(N)nc(N)c1-c1ccc(Cl)cc1.COc1ncnc(NS(=O)(=O)c2ccc(N)cc2)c1OC",
    "Hepatotoxicity (severe hepatitis)": 3
  },
  {
    "Molecule": "CCc1c(C)[nH]c2c1C(=O)C(CN1CCOCC1)CC2 (stereo not drawn)",
    "Hepatotoxicity (severe hepatitis)": 0
  },
  {
    "Molecule": "CC(O)(P(=O)(O)O)P(=O)(O)O",
    "Hepatotoxicity (severe hepatitis)": 0
  },
  {
    "Molecule": "NNc1nnc(NN)c2ccccc12 [DIHYDRALAZINE]",
    "Hepatotoxicity (severe hepatitis)": 1
  },
  {
    "Molecule": "Cc1cc(C)cc(OCC2CNC(=O)O2)c1 (stereo not drawn)",
    "Hepatotoxicity (severe hepatitis)": 0
  },
  {
    "Molecule": "C[C@@H]1O[C@@H]1P(=O)(O)O",
    "Hepatotoxicity (severe hepatitis)": 0
  },
  {
    "Molecule": "Nc1nc(/C(=C/CC(=O)O)C(=O)N[C@@H]2C(=O)N3C(C(=O)O)=CCS[C@H]23)cs1",
    "Hepatotoxicity (severe hepatitis)": 0
  }
]
